Data origin: paper PMC8041284

Study system: BTK (Homo sapiens, UniProt Q06187)
Sequence (Q06187 402-655 limits assumed): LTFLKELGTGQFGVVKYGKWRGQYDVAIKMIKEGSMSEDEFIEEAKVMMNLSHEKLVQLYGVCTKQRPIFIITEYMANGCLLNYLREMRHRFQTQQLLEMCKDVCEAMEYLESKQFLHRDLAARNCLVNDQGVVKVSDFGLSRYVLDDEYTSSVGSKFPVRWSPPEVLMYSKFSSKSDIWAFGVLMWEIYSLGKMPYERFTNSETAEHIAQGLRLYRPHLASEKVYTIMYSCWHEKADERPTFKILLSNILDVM
Stated conditions: 10 µM; inhibitor
Measured endpoint: BTK inhibition (%)
Only the number, expressed in %, is required.

Q: Consider the compound shown here: COC(=O)C1=CCCN(C)C1 What is its recorded BTK inhibition (%)?
Result: -10.1

Q: Same read-out for CN1C(=O)[C@@]23C[C@]4([C@]56C[C@@]78SS[C@@](CO)(C(=O)N7[C@H]5Nc5ccccc56)N(C)C8=O)c5ccccc5N[C@@H]4N2C(=O)[C@]1(CO)SS3 ?
Result: 5.4

Q: Can you check CN1CCc2cc3c(cc2[C@H]1[C@@H]1OC(=O)c2c1ccc1c2OCO1)OCO3 next?
Result: -0.8

Q: Okay, and O=c1ccc2c(O)c3ccoc3cc2o1 ?
Result: -11.6

* * *

Study system: BTK (Homo sapiens)
Procedure summary: biochemical
Stated conditions: read-out: BTK inhibition (%), 0.75 uM BTK, […] probe 3l, 15 min preincubation
Measured endpoint: inhibition at 10 µM (%)
Unit % implied. Number only.

Q: Item c1cncc(-c2cn[nH]n2)c1 [PCM-0215871] has what recorded inhibition at 10 µM?
Result: 15.4

Q: Can you handle CN1CCc2cc(Nc3ncc(C4CC4)c(NCCCNC(=O)C4CCC4)n3)ccc2C1 [PCM-0215643] next?
Result: -8.5

Q: Item: C[C@@H]1COC(Nc2ccc3ncnc(Nc4ccc(OCc5nccs5)c(Cl)c4)c3c2)=N1 [PCM-0095513]
Result: 17.2

Q: How about Cn1cc(-c2ccc3nnc(C(F)(F)c4ccc5ncccc5c4)n3n2)cn1 [PCM-0094910] ?
Result: -1.4

* * *

Study system: UniProtKB Q06187
Procedure summary: biochemical
Stated conditions: read-out: BTK inhibition (%), 0.75 uM BTK, […] probe 3l, 15 min preincubation
Rule: inhibition at 10 µM under 10% gives No, otherwise Yes.

Q: Does the compound COc1ccc(/C=C/C(=O)c2c(O)cc(OC)cc2OC)cc1 have recorded inhibition at 10 µM that is 10% or more?
Result: Yes

Q: Queued: CC(=O)O[C@]1(C(C)=O)CC[C@H]2[C@@H]3C=C(C)C4=CC(=O)CC[C@]4(C)[C@H]3CC[C@@]21C
Result: No

Q: CCCCC(=O)O[C@H]1CC[C@H]2[C@@H]3CCc4cc(O)ccc4[C@H]3CC[C@]12C , same question.
Result: Yes

Q: Entry to check: CC(=O)Nc1nc2c(Oc3cc(-c4ccc(C(F)(F)F)cc4)ncn3)cccc2s1
Result: Yes

Q: Another compound to look at: CCCCCCC1CCC(=O)O1 (centres unmarked)
Result: No

Q: Same read-out for CC(COc1ccccc1Cc1ccccc1)N1CCCCC1 (centres unmarked) ?
Result: No

Q: Input Cn1cc(-c2[nH]c3cc(NC(=O)[C@H](N)C4CCCCC4)cc4c3c2C=NNC4=O)cn1
Result: Yes

Q: Try the compound CC(C)=CCC[C@](C)(O)[C@H]1CC[C@]2(C)[C@@H]1[C@H](O)C[C@@H]1[C@@]3(C)CC[C@H](O)C(C)(C)[C@@H]3CC[C@]12C
Result: Yes

Q: Lookup COc1cc2nc(N3CCCN(C)CC3)nc(NC3CCN(Cc4ccccc4)CC3)c2cc1OC
Result: No

Q: Query C=CC(=O)Nc1ccc2ncnc(Nc3cccc(Br)c3)c2c1 next
Result: Yes

Q: Next entry: CCOC(=O)CC(=O)N1CCSC1COc1ccccc1OC (centres unmarked)
Result: No

Q: Next compound up: CN(C)C(=N)N=C(N)N
Result: Yes

Q: And for CC(C)=CCC[C@@](C)(O)[C@H]1CC[C@]2(C)[C@@H]1[C@H](O)C[C@@H]1[C@@]3(C)CC[C@H](O)C(C)(C)[C@@H]3[C@@H](O[C@@H]3O[C@H](CO)[C@@H](O)[C@H](O)[C@H]3O)C[C@]12C ?
Result: Yes

Q: Could you do the same for CCN(CC)c1ccc(/C=N/NC(=O)c2ccc(O)cc2)cc1 , please?
Result: No

Q: Record: COC(=O)c1ccc2c(c1)nc(NC(=O)c1ccccc1)n2CCCc1ccccc1
Result: No

Q: For Cc1cc2c(F)c(Oc3ncnn4cc(OC[C@@H](C)O)c(C)c34)ccc2[nH]1 then?
Result: No

Q: Param item: CCOC(=O)OC(C)OC1=C(C(=O)Nc2ccccn2)N(C)S(=O)(=O)c2ccccc21 (centres unmarked)
Result: No

Q: Can you handle O=C1OC(COc2ccccc2[N+](=O)[O-])CC1Cc1ccccc1 (centres unmarked) next?
Result: No

Q: Another compound to look at: C=C(C)[C@@H]1CC[C@]2(C(=O)O)CC[C@]3(C)[C@H](CC[C@@H]4[C@@]5(C)CC[C@H](O)[C@@](C)(CO)[C@@H]5CC[C@]43C)[C@@H]12
Result: Yes

Q: What do we get for O=C(O)c1cc(N=Nc2ccc(O)c(C(=O)O)c2)ccc1O ?
Result: Yes

Q: Also, N#C/C(=C\c1ccc(O)c(O)c1)C(=O)NCc1ccccc1 please.
Result: Yes

Q: Cc1cccc(Nc2nc(-c3ccncc3)cs2)c1 ?
Result: No
